assay: qHTS profiling of the MIPE4 collection as inhibitors of Plasmodium falciparum (DD2) proliferation (AID 743345); settings: P. falciparum Dd2 in erythrocytes, SYBR Green DNA, 72 h; at 28.5 µM (top of the series) unless noted
Please assign Criterion not met whenever parasite growth remaining, % of DMSO control (lower = more inhibition) is at or above 90%, and Criterion met whenever it is below.

| molecule | category |
| --- | --- |
| COc1ccc(-c2oc3cc(OC)ccc3c2C(=O)c2ccc(C#N)cc2)cc1 | Criterion met |
| COc1cc(Oc2ccnc3cc(OC)c(OC)cc23)ccc1NC(=O)NC(C)c1nccs1 (stereo unspecified) | Criterion met |
| NCCc1ccc(O)c(O)c1 | Criterion met |
| NC(=O)c1ccc(-c2nc(-c3ccc4c(c3)OCO4)c(-c3ccccn3)[nH]2)cc1 | Criterion met |
| COc1ccccc1[C@H](c1cccc2ccccc12)[C@@](C)(C#N)C(=O)N1CCC(c2cccc(C(F)(F)F)c2)CC1 | Criterion met |
| CCCS(=O)(=O)Nc1ccc(F)c(C(=O)c2c[nH]c3ncc(-c4ccc(Cl)cc4)cc23)c1F | Criterion met |
| CC(c1cc2ccccc2s1)N(O)C(N)=O (stereo unspecified) | Criterion not met |
| NC(=O)C1CCCc2c1[nH]c1ccc(Cl)cc21 (stereo unspecified) | Criterion not met |
| CN[C@@H](C)C(=O)N[C@H]1CCCC[C@H]2CC[C@@H](C(=O)N[C@@H](c3ccccc3)c3cn(CCCCc4ccc(CCCCn5cc([C@@H](NC(=O)[C@@H]6CC[C@@H]7CCCC[C@H](NC(=O)[C@H](C)NC)C(=O)N76)c6ccccc6)nn5)cc4)nn3)N2C1=O | Criterion met |
| Cc1ccccc1C(OCCN(C)C)c1ccccc1 (stereo unspecified) | Criterion met |
| c1ccc(-c2nn3c(c2-c2ccnc4cc(OCCN5CCOCC5)ccc24)CCC3)nc1 | Criterion met |
| C[C@@H]1CN(Cc2ccc(F)cc2)[C@@H](C)CN1C(=O)c1cc2c(C(=O)C(=O)N(C)C)cn(C)c2cc1Cl | Criterion met |
| Cc1c(CN2CCN(C(=O)C(C)C)CC2)sc2c(N3CCOCC3)nc(-c3cnc(N)nc3)nc12 | Criterion met |
| NC(=O)c1ccc(I)c([N+](=O)[O-])c1 | Criterion not met |
| Nc1cccc(S(=O)(=O)N2CCCN(S(=O)(=O)c3ccc4c(c3)OCCO4)CC2)c1 | Criterion not met |
| OC(CN1CCC(Cc2ccc(F)cc2)CC1)c1ccc(Cl)cc1 (stereo unspecified) | Criterion met |
| CCOC(=O)N1CCC(=C2c3ccc(Cl)cc3CCc3cccnc32)CC1 | Criterion met |
| Cc1cnc(NC(=O)C2=C(O)c3ccccc3S(=O)(=O)N2C)s1 | Criterion met |
| Nc1nc2c(ncn2COCCO)c(=O)[nH]1 | Criterion not met |
| c1ccc([C@H]2CN3CCSC3=N2)cc1 | Criterion not met |

----------
test: Quantitative High-Throughput drug screen in 47 multiple myeloma cell lines against the NCATS MIPE library collection: INA6_PLB cell viability assay (AID 1918965; also: nearly all actives have a fitted effect of over 55% in size); details: INA6 myeloma viability, CellTiter-Glo ATP luminescence, 48 h; series mostly up to 45.8 µM
Inconclusive results are not listed. Activity calls are given as the source filed them. The call rests on the fitted dose curve; in most records, active means well fitted cell-killing curve with a large enough effect; inconclusive means small, poorly fitted or top-dose-only effect, or effect the other way; inactive means no such curve, though single readings can be large or run the other way.
Possible outcomes: active, inactive

| molecule | category |
| --- | --- |
| CCC(C)N(C)C(=O)c1cc2ccccc2c(-c2ccccc2Cl)n1 (stereo not given) | inactive |
| COc1cc2nccc(Oc3ccc(NC(=O)NC4CC4)c(Cl)c3)c2cc1C(N)=O | active |
| Cc1cccc(-c2[nH]c(C(C)(C)C)nc2-c2ccc3nccnc3c2)n1 | active |
| COc1ccc(COc2cc3oc(=O)c4cc(C(C)O)ccc4c3cc2OC)cc1 (stereo not given) | active |
| COc1c(Cl)cc2c([nH]c3cnccc32)c1NC(=O)c1cccnc1C | active |
| COc1ccccc1-c1cccc(-c2c(O)c3cc(C#N)c(Cl)cc3[nH]c2=O)c1 | inactive |
| O=C1CCC(N2C(=O)c3ccccc3C2=O)C(=O)N1 (stereo not given) | inactive |
| COCCNCCCn1c(C(=O)CF)c(-c2ccc(C)cc2)c2c(N)ncnc21 | active |
| CC(c1cc2ccccc2s1)N(O)C(N)=O (stereo not given) | inactive |
| COCC(=O)NCC=Cc1ccc2ncnc(Nc3ccc(Oc4ccc(C)nc4)c(C)c3)c2c1 | active |
| Nc1nc2[nH]cc(CCc3ccc(C(=O)N[C@@H](CCC(=O)O)C(=O)O)cc3)c2c(=O)[nH]1 | active |
| CC[C@@H](C)[C@H](NC(=O)[C@H](CC1CCCCC1)NC(=O)c1ccno1)C(=O)N1CCC2(CCc3ccccc32)CC1 | inactive |
| COc1ccc(-c2ccc3c(N4CCOCC4)nc(N4C[C@@H](C)O[C@@H](C)C4)nc3n2)cc1CO | active |
| COc1ccc([C@@H]2CC(=O)c3c(O)cc(O[C@@H]4O[C@H](CO[C@@H]5O[C@@H](C)[C@H](O)[C@@H](O)[C@@H]5O)[C@@H](O)[C@H](O)[C@@H]4O)cc3O2)cc1O | inactive |
| Cn1cnc([N+](=O)[O-])c1Sc1ncnc2nc[nH]c12 | active |
| CCc1ccc(CCOc2ccc(CC3SC(=O)NC3=O)cc2)nc1 (stereo not given) | inactive |
| Cc1ccc(NC(=O)c2cccc(C(C)(C)C#N)c2)cc1Nc1ccc2ncn(C)c(=O)c2c1 | active |
| CCn1c(-c2nonc2N)nc2c(C#CC(C)(C)O)ncc(OC[C@H]3CCCNC3)c21 | active |
| COc1cccc2cc(-c3nc(C4CCC(C(=O)O)CC4)n4ncnc(N)c34)[nH]c12 (stereo not given) | active |
| C1COC(NC(C2CC2)C2CC2)=N1 | active |
